Every entry's value here was drawn from ChEMBL document CHEMBL4359877.

- procedureText: MRT in ICR mouse at 25 mg/kg, po measured upto 24 hrs by HPLC analysis
- Format: ADME, organism-based
- cond: in vivo
Documented MRT across a set of compounds
Quick reminder: number only, in h, skip the unit.

Worked examples follow.
O=c1nc(N2CCN(CC3CCCCC3)CC2)sc2c([N+](=O)[O-])cc(C(F)(F)F)cc12; 3.17
CON=C1CCC(CN2CCN(c3nc(=O)c4cc(C(F)(F)F)cc([N+](=O)[O-])c4s3)CC2)CC1 (stereo not drawn); 2.46

Answer with reported MRT of CCON=C1CCC(CN2CCN(c3nc(=O)c4cc(C(F)(F)F)cc([N+](=O)[O-])c4s3)CC2)CC1 (stereo not drawn)
2.3

====

- procedureText: Cmax in Sprague-Dawley rat at 25 mg/kg, po measured upto 24 hrs by HPLC analysis
- Assay type: ADME, organism-based
- Set-up: dose 25 mg/kg, route oral
- cond: in vivo
Catalogue of molecules with associated Cmax
Field: value (include unit after the number)

CON=C1CCC(CN2CCN(c3nc(=O)c4cc(C(F)(F)F)cc([N+](=O)[O-])c4s3)CC2)CC1 (configuration not stated); 6230 ng/mL

Please list Cmax recorded for the molecule O=c1nc(N2CCN(CC3CCCCC3)CC2)sc2c([N+](=O)[O-])cc(C(F)(F)F)cc12
463 ng/mL

====

- procedureText: AUC (0 to infinity) in Sprague-Dawley rat at 2.5 mg/kg, iv by HPLC analysis
- Assay type: ADME, organism-based
- Set-up: dose 2.5 mg/kg, route intravenous, time infinity
- cond: in vivo
measurementKind: AUC(0-inf) (ng·h/mL)
Please respond with the number in ng·h/mL and leave the unit unwritten.

CON=C1CCC(CN2CCN(c3nc(=O)c4cc(C(F)(F)F)cc([N+](=O)[O-])c4s3)CC2)CC1 (configuration not stated); 5720

Then there is this compound:
Given the compound O=c1nc(N2CCN(CC3CCCCC3)CC2)sc2c([N+](=O)[O-])cc(C(F)(F)F)cc12 , write its reported AUC(0-inf).
1540

====

Quick list: half-life per entry.
- procedureText: Half life in Sprague-Dawley rat at 2.5 mg/kg, iv measured upto 24 hrs by HPLC analysis
- Assay type: ADME, organism-based
- cond: in vivo
# value in h; strip the unit string

CON=C1CCC(CN2CCN(c3nc(=O)c4cc(C(F)(F)F)cc([N+](=O)[O-])c4s3)CC2)CC1 (configuration not stated); 1.77

For the next question, use this molecule.
Provide one value: measured half-life of O=c1nc(N2CCN(CC3CCCCC3)CC2)sc2c([N+](=O)[O-])cc(C(F)(F)F)cc12
1.64

====

- target: UniProt:P11712
- Sequence (P11712 whole entry): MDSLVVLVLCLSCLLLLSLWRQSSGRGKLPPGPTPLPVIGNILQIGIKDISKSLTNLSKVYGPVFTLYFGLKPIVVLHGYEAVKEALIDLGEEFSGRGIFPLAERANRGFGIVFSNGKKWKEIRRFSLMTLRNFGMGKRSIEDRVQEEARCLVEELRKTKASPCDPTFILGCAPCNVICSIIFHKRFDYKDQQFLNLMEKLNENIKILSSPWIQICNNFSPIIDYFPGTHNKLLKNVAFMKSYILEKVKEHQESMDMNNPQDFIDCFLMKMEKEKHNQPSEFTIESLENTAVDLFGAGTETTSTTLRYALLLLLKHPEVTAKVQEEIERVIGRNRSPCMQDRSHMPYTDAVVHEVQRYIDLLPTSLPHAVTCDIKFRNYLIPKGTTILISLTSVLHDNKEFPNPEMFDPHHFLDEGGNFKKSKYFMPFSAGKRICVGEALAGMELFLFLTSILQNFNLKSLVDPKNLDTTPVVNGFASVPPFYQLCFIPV
pIC50: −log10 of the molar value.
measurementKind: pIC50

Please look at O=c1nc(N2CCN(CC3CCCCC3)CC2)sc2c([N+](=O)[O-])cc(C(F)(F)F)cc12 and tell me its recorded pIC50 on UniProt:P11712.
< 5.00

====

- procedureText: Half life in Sprague-Dawley rat at 50 mg/kg, po measured upto 24 hrs by HPLC analysis
- Format: ADME, organism-based
- cond: in vivo
Measured half-life accompanies every entry in the list below.
I'd appreciate it if you wrote the number followed by its unit.

CON=C1CCC(CN2CCN(c3nc(=O)c4cc(C(F)(F)F)cc([N+](=O)[O-])c4s3)CC2)CC1 (configuration not stated); 248 min

Check the records and state half-life for O=c1nc(N2CCN(CC3CCCCC3)CC2)sc2c([N+](=O)[O-])cc(C(F)(F)F)cc12
292 min

====

Reported bioavailability is given for each of the following molecules.
- procedureText: Oral bioavailability in Sprague-Dawley rat at 25 mg/kg measured upto 24 hrs by HPLC analysis
- Format: ADME, organism-based
- cond: in vivo

CON=C1CCC(CN2CCN(c3nc(=O)c4cc(C(F)(F)F)cc([N+](=O)[O-])c4s3)CC2)CC1 (configuration not stated); 46.1%

Next up:
Retrieve bioavailability measured for O=c1nc(N2CCN(CC3CCCCC3)CC2)sc2c([N+](=O)[O-])cc(C(F)(F)F)cc12 and print it.
10.7%

====

- target: UniProt P05177
- Sequence (P05177 whole entry): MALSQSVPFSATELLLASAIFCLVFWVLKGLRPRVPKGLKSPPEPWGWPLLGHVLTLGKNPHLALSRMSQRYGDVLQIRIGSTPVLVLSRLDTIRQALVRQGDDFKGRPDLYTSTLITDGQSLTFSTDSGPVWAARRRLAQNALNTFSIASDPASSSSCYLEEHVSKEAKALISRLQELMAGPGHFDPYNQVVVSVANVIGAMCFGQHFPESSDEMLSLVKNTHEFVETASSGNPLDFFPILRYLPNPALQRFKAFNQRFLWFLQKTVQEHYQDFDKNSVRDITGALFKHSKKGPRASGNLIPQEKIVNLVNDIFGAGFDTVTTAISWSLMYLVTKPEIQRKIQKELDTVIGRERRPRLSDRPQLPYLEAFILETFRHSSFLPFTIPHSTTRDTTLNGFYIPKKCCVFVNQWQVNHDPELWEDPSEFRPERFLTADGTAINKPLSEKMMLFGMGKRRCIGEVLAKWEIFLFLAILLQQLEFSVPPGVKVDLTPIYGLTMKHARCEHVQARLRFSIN
- procedureText: Inhibition of CYP1A2 (unknown origin)
- Type: ADME
pIC50: −log10 of the molar value.
measurementKind: pIC50

Entry CON=C1CCC(CN2CCN(c3nc(=O)c4cc(C(F)(F)F)cc([N+](=O)[O-])c4s3)CC2)CC1 (configuration not stated) needs its pIC50 filled in; supply it.
< 5.00

Input CCON=C1CCC(CN2CCN(c3nc(=O)c4cc(C(F)(F)F)cc([N+](=O)[O-])c4s3)CC2)CC1 (configuration not stated) , output reported pIC50.
< 5.00

====

Reported Tmax values are given for each entry in this list.
- procedureText: Tmax in Sprague-Dawley rat at 25 mg/kg, po measured upto 24 hrs by HPLC analysis
- Format: ADME, organism-based
- cond: in vivo
# number only, unit h dropped from output

O=c1nc(N2CCN(CC3CCCCC3)CC2)sc2c([N+](=O)[O-])cc(C(F)(F)F)cc12; 0.91

Continue with the molecule presented below.
// Input: CON=C1CCC(CN2CCN(c3nc(=O)c4cc(C(F)(F)F)cc([N+](=O)[O-])c4s3)CC2)CC1 (configuration not stated) . Output its Tmax only.
1.25

====

- target: Voltage-gated inwardly rectifying potassium channel KCNH2 (Homo sapiens, UniProt Q12809)
- Sequence (Q12809 whole entry): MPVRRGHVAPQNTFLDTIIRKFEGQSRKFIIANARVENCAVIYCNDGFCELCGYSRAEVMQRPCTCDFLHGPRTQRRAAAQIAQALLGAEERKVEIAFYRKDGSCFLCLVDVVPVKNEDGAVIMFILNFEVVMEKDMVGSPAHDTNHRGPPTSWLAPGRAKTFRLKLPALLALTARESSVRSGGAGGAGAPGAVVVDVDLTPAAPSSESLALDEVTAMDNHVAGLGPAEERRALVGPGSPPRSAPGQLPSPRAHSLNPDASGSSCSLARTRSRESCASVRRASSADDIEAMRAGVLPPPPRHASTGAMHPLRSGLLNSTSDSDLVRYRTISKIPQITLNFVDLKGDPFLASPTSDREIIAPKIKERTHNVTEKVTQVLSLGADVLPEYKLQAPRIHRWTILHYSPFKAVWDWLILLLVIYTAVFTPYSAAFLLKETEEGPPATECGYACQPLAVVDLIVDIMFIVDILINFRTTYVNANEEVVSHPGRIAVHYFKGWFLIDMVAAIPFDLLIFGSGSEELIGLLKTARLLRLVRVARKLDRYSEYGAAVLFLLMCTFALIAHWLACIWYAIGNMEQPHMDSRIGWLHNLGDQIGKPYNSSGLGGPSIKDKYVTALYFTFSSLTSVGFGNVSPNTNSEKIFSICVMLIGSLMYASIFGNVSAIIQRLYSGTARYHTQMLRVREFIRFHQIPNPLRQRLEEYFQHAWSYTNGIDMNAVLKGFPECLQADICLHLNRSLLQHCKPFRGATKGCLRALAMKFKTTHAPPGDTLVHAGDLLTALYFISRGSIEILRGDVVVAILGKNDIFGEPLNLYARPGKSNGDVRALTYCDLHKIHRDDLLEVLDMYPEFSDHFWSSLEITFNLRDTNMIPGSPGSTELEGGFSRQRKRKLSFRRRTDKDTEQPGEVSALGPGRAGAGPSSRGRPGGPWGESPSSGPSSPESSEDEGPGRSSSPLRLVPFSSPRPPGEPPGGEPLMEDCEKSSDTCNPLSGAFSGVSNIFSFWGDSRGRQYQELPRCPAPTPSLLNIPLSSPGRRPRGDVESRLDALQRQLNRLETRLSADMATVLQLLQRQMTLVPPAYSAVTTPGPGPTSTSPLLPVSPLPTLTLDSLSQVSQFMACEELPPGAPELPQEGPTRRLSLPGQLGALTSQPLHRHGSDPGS
- procedureText: Inhibition of human ERG transfected in HEK293 cells by whole-cell patch clamp method
- Type: cell-based
measurementKind: pIC50
Scale: negative log10 of molar concentration, which is what pIC50 denotes.

Give the reported value of pIC50 for this record: O=c1nc(N2CCN(CC3CCCCC3)CC2)sc2c([N+](=O)[O-])cc(C(F)(F)F)cc12
3.99

====

- procedureText: Tmax in ICR mouse at 25 mg/kg, po measured upto 24 hrs by HPLC analysis
- Type: ADME, organism-based
- cond: in vivo
# reported Tmax; entries follow
Number in min, nothing else.

Let me know recorded Tmax for CCON=C1CCC(CN2CCN(c3nc(=O)c4cc(C(F)(F)F)cc([N+](=O)[O-])c4s3)CC2)CC1 (stereo not drawn) , thanks.
15

Annotate the compound O=c1nc(N2CCN(CC3CCCCC3)CC2)sc2c([N+](=O)[O-])cc(C(F)(F)F)cc12 with its measured Tmax.
15

Indicate its recorded Tmax; the compound in question is CON=C1CCC(CN2CCN(c3nc(=O)c4cc(C(F)(F)F)cc([N+](=O)[O-])c4s3)CC2)CC1 (stereo not drawn)
15

====

- Test system: Mycobacterium tuberculosis
- procedureText: Antituberculosis activity against Mycobacterium tuberculosis H37Rv infected in BALB/C mouse assessed as colony forming unit in lungs at 25 mg/kg, po administered once daily via gavage for 5 days per week for 3 weeks starting from 10 days post-infection (reference value: 6.44 +/- 0.34)
- Format: functional
measurementKind: Activity (log10CFU)
Respond with the bare value in log10CFU.

NNC(=O)c1ccncc1; 1.76

Give the reported value of Activity for this record: CON=C1CCC(CN2CCN(c3nc(=O)c4cc(C(F)(F)F)cc([N+](=O)[O-])c4s3)CC2)CC1 (centres undefined)
2.4

Provide measured Activity value, entry: O=c1nc(N2CCN(CC3CCCCC3)CC2)sc2c([N+](=O)[O-])cc(C(F)(F)F)cc12
2.65

Give the value of Activity reported for the following: CCON=C1CCC(CN2CCN(c3nc(=O)c4cc(C(F)(F)F)cc([N+](=O)[O-])c4s3)CC2)CC1 (centres undefined)
2

====

Catalogue of compounds with associated Cmax
- procedureText: Cmax in ICR mouse at 25 mg/kg, po measured upto 24 hrs by HPLC analysis
- Format: ADME, organism-based
- Design: dose 25 mg/kg, route oral
- cond: in vivo
Write the value in ng/mL as a bare number.

CON=C1CCC(CN2CCN(c3nc(=O)c4cc(C(F)(F)F)cc([N+](=O)[O-])c4s3)CC2)CC1 (stereo not drawn); 8570
O=c1nc(N2CCN(CC3CCCCC3)CC2)sc2c([N+](=O)[O-])cc(C(F)(F)F)cc12; 912

Field: next compound
Input CCON=C1CCC(CN2CCN(c3nc(=O)c4cc(C(F)(F)F)cc([N+](=O)[O-])c4s3)CC2)CC1 (stereo not drawn) , output reported Cmax.
15200
